src = PubChem BioAssay (NCI)

Tested on: RXF 393 renal
test_name: NCI-60 one-dose screen, 48 h
experimental_conditions: 10 µM unless noted
The panel holds about 83,000 compounds, 20% with a hit somewhere; the sample as a whole holds those more often. Active and inactive are the calls of the source. How the source made its calls: active means growth percent below 10; inactive means the rest.
Please reply with one of these outcomes: class 1 = active, class 0 = inactive

Completed entries (count: 4):
CCN(CC)Cc1c(-c2cccc(OC(F)(F)F)c2)[nH]c2ccc(N3CCCC3)cc2c1=O
class 0
CC(C)C[C@H]1C(=O)O[C@H](C(C)C)C(=O)N(C)[C@@H](C(C)C)C(=O)O[C@H](C(C)C)C(=O)N(C)[C@@H](C(C)C)C(=O)O[C@H](C(C)C)C(=O)N1C
class 0
NC(=O)C(=Cc1ccc(Cl)cc1)C(N)=O
class 0
CCCC(=O)NC(c1cccnc1)c1cc(Cl)c2cccnc2c1O (stereo not given)
class 0

Now consider a different compound.
Called result for COc1cc(/C=N/Nc2ccnc3cc(Cl)ccc23)cc(OC)c1O
class 1
